From: patent US6472526B1

Item-by-item account of pIC50
Target: Ras farnesyl transferase (Homo sapiens, UniProt P49354+P49356)
Construct: made in house
Assay: In vitro inhibitory activity for Ras farnesyl transferase, K-Ras substrate
Type: biochemical
Details: in vitro farnesyl transferase assay, K-Ras; read-out: K-Ras IC50
The value called pIC50 is obtained by taking minus log10 of the concentration in mol/L.

Please review the entries below; each comes with its answer.
{"compound": "CN(C)CCN(C)C(=O)c1cn(Cc2cncn2Cc2ccc3c(c2)OCO3)cc1-c1cccc2ccccc12", "target system": "Ras farnesyl transferase (Homo sapiens, UniProt P49354+P49356)", "pIC50": 6.12}
{"compound": "COc1ccccc1CCn1cncc1Cn1cc(C(=O)N2CCN(C)CC2)c(-c2cccc3ccccc23)c1", "target system": "Ras farnesyl transferase (Homo sapiens, UniProt P49354+P49356)", "pIC50": 8.70}
{"compound": "COCCN(C)C(=O)c1cn(Cc2cncn2CCc2cccc3ccccc23)cc1-c1cccc2ccccc12", "target system": "Ras farnesyl transferase (Homo sapiens, UniProt P49354+P49356)", "pIC50": 8.30}
{"compound": "COc1ccc(Cn2cncc2Cn2cc(C(=O)N3CCN(C)CC3)c(-c3cccc4ccccc34)c2)cc1", "target system": "Ras farnesyl transferase (Homo sapiens, UniProt P49354+P49356)", "pIC50": 8.52}

# input Suppose we examine the compound "COCCN(C)C(=O)c1cn(Cc2cncn2CC(C)C)cc1-c1cccc2ccccc12" ; what pIC50 value has been reported?
# output 7.46

# input Suppose we examine the compound "Cc1ccc(Cn2cncc2Cn2cc(C(=O)N3CCOCC3)c(-c3cccc4ccccc34)c2)cc1" ; what pIC50 value has been reported?
# output 8.68

# input Suppose we examine the compound "COCCN(C)C(=O)c1cn(Cc2cncn2CC2CCN(C(=O)OCc3ccccc3)CC2)nc1-c1cccc2ccccc12" ; what pIC50 value has been reported?
# output 7.15
